// data source = PubChem BioAssay (Tox21)

- PROCEDURE_DETAILS: A CellTox Green Cytotoxicity Assay to monitor cytotoxicity in HepG2 cells - 40 hour (AID 1224879); also: nearly all actives have a fitted effect of over 40% in size
- RUN_PARAMETERS: CellTox Green fluorescence; series mostly up to 76.8 µM
Inconclusive results are not listed. The source made the active and inactive calls. Calls follow the shape of the dose curve; as a rule, active = well fitted activation curve with a large enough effect in the repeat runs; inconclusive = weak or mixed curves; inactive = flat fitted curve, though single readings scatter.
Labels: active, inactive

COMPOUND | QUALITATIVE_LABEL
O=C1Nc2ccccc2C1=O | inactive
CC(C)(C)NCC(O)COc1cccc2c1CCC(=O)N2 (stereo unspecified) | inactive
N=C(N)N | inactive
CCc1ncc(C)[nH]1 | inactive
CCCCCCCCS(=O)(=O)O | inactive
N=C(N)S(=O)O | inactive
CCC(=O)OCCOc1ccccc1 | inactive
CC[C@@]1(c2ccccc2)NC(=O)N(C)C1=O | inactive
CC(C)(C)c1ccc(N)cc1 | active
O=CN1CCCCC1 | inactive
CCCC[O][Al]([O]CCCC)[O]CCCC | inactive
CCCCCC(CC)OC(=O)CCCOc1ccc(Cl)cc1Cl (stereo unspecified) | inactive
COc1cc2nc(N3CCN(C(=O)C4CCCO4)CC3)nc(N)c2cc1OC (stereo unspecified) | inactive
CCC(C)SSC(C)CC (stereo unspecified) | inactive
CC[N+](C)(CC)CC | inactive
CCCCc1ccc(Cl)cc1 | inactive
CC(=O)OCC(=O)[C@@]1(O)CC[C@H]2[C@@H]3CCC4=CC(=O)C=C[C@]4(C)[C@H]3[C@@H](O)C[C@@]21C | inactive
O=C(O)Cc1c(Cl)ccc(Cl)c1Cl | inactive
C=CCN1CCc2nc(N)sc2CC1 | inactive
CC(=O)c1c(C)cc(C(C)(C)C)cc1C | active
C/C(Cl)=C/CCl | inactive
O=C(CCBr)N1CCN(C(=O)CCBr)CC1 | inactive
CCOC(=O)CC(C(C)=O)C(C)=O | inactive
COc1cc(C(=O)NC2CCCNC2)cc(OC)c1OC (stereo unspecified) | inactive
Cc1nc2ccc(Cl)cc2[nH]1 | inactive
CCCCCCCCOCCC#N | active
CCCCS | inactive
CC1(C)CC(N)CC(C)(C)N1 | inactive
CCCCC(CC)CCC(CC(C)C)OS(=O)(=O)O (stereo unspecified) | inactive
CCCCCCCCCCCCCC(=O)OCC | inactive
CN1C(CCl)Nc2cc(Cl)c(S(N)(=O)=O)cc2S1(=O)=O (stereo unspecified) | inactive

----------
- PROCEDURE_DETAILS: qHTS assay to identify small molecule antagonists of the estrogen receptor alpha (ER-alpha) signaling pathway using the BG1 cell line - cell viability counter screen (AID 743081);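 also: compound given together with 17beta-estradiol as the ER stimulus; % is scaled to controls: 0 for no effect and ±100 for the full control effect; nearly all actives have a fitted effect of over 45% in size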
- RUN_PARAMETERS: BG1Luc4E2 viability, CellTiter-Fluor, 22 h; series mostly up to 70.3 µM
Results filed as inconclusive are left out. Activity calls are given as the source filed them. Calls come from the whole dose curve; as a rule, active = well fitted cell-killing curve with a large enough effect in the repeat runs; inconclusive = weak or mixed curves, or effect the other way; inactive = flat fitted curve, though single readings scatter. Non-standard residues stand in square brackets, D forms with d. Residues, ends and D or L forms follow the SMILES beside them. *: point of attachment. Sta = CC(C)C[C@H](N)[C@@H](O)CC(=O)O; Isovaleryl = CC(C)CC(=O)*

COMPOUND | activity change, negative = cytotoxicity
CC(C)CC(O)Cc1ccccc1 (centres undefined) | inactive
C=CCN(CC=C)CC=C | inactive
CCc1ccc(CC)cc1 | inactive
CCCC(=O)OC | inactive
CCCCCCCCCCCCCCCCN(C)C | -2.87% [at 8.47 µM] (inactive)
COc1cnc(NS(=O)(=O)c2ccc(N)cc2)nc1 | inactive
Cc1cc(O)c(Cl)cc1C | inactive
OCCC(F)(F)C(F)(F)C(F)(F)C(F)(F)C(F)(F)C(F)(F)F | inactive
N=C(N)S(=O)O | inactive
CCN1CCN(C(=O)N[C@@H](C(=O)N[C@@H]2C(=O)N3[C@@H]2SC(C)(C)[C@H]3C(=O)O)c2ccccc2)C(=O)C1=O | inactive
CC(C)CC(=O)N[C@H](C(=O)N[C@H](C(=O)N[C@@H](CC(C)C)[C@@H](O)CC(=O)N[C@@H](C)C(=O)N[C@@H](CC(C)C)[C@@H](O)CC(=O)O)C(C)C)C(C)C (Isovaleryl-VV[Sta]A[Sta]-OH) | inactive
NNC(=O)OCc1ccccc1 | inactive
O=c1c(O)c(O)c1=O | inactive
CCCCC(CC)COC(=O)CC#N (centres undefined) | inactive
O=C(O)Cc1ccccc1Oc1ccc(Cl)cc1Cl | inactive
CC(=O)OC/C=C(/C)CCC=C(C)C | inactive
CN(C)CCC[C@@]1(c2ccc(F)cc2)OCc2cc(C#N)ccc21 | inactive
O=S(=O)(O)c1ccc(Cl)cc1 | inactive
C=C(C)C(=O)OCCOC1CC2CC1C1C=CCC21 (centres undefined) | inactive
CCCCc1ccc(Cl)cc1 | inactive
CCCCN(CCCC)CCCCCCN(CCCC)CCCC | inactive
CCCCCCCCOCCC#N | inactive
CCc1ncc(C)[nH]1 | inactive
COC(C)(C)CC(C)=O | inactive
CC(C)(C)C(=O)NCCCC(=O)O | inactive
c1coc(Cn2cccc2)c1 | inactive
COC(=O)N/N=C/c1c[n+]([O-])c2ccccc2[n+]1[O-] | inactive
Cc1ccc(O)c([N+](=O)[O-])c1 | inactive
CC1=C(O)C(=O)CO1 | inactive
BrCCOc1ccccc1 | inactive
C=CCN1CCc2nc(N)sc2CC1 | inactive
COC(=O)c1c(C)cc(O)c(C)c1O | inactive
CCCCCCCCS(=O)(=O)O | inactive
CC(CN1CC(=O)NC(=O)C1)N1CC(=O)NC(=O)C1 (centres undefined) | inactive
Nc1cc(S(=O)(=O)O)ccc1O | inactive
C[n+]1ccccc1/C=N/O | inactive
C=CCCCCCCCCOC(C)=O | inactive
CC(C)C[P+](C)(CC(C)C)CC(C)C | inactive
Cc1ccc2ccccc2n1 | inactive
CN(C)CCc1c[nH]c2ccc(CS(=O)(=O)N3CCCC3)cc12 | inactive
CCN(CC)CC | inactive
N#Cc1ccccc1C#N | inactive
CCO[Si](CC(C)C)(OCC)OCC | inactive
O=C(OOC(=O)c1ccccc1)c1ccccc1 | inactive
CCC(=O)OCCOc1ccccc1 | inactive
CC(C)=CCC/C(C)=C\C#N | inactive
CC(C)(C)NCC(O)COc1cccc2c1CCC(=O)N2 (centres undefined) | inactive
COC(=O)/C=C(\C)CCC=C(C)C | inactive
C=CC(C)(CCC=C(C)C)OC(=O)C(C)C (centres undefined) | inactive
c1cc2ccc3ccc4ccc5cccc6c(c1)c2c3c4c56 | 17.4% [at 3.79 µM] (inactive)
O=C1c2ccccc2C(=O)N1CO | inactive
CCCCCCCC(=O)N(C)C | inactive
CN1C(CCl)Nc2cc(Cl)c(S(N)(=O)=O)cc2S1(=O)=O (centres undefined) | inactive
CCCCCCC(O)CO (centres undefined) | inactive
CC1(C)C(=O)C(C)(C)C1=O | inactive
CC(C)(C)OC=O | inactive
CCC(C)SSC(C)CC (centres undefined) | inactive
CCOC(=O)[C@H](CCc1ccccc1)N[C@H]1CS[C@H](c2cccs2)CN(CC(=O)O)C1=O | inactive
O=C(c1ccccc1)c1cccc(O)c1 | inactive

----------
- ASSAY_TARGET: Cytochrome P450 1A2 (Homo sapiens) (UniProt P05177)
- Sequence (P05177 whole entry, looked up): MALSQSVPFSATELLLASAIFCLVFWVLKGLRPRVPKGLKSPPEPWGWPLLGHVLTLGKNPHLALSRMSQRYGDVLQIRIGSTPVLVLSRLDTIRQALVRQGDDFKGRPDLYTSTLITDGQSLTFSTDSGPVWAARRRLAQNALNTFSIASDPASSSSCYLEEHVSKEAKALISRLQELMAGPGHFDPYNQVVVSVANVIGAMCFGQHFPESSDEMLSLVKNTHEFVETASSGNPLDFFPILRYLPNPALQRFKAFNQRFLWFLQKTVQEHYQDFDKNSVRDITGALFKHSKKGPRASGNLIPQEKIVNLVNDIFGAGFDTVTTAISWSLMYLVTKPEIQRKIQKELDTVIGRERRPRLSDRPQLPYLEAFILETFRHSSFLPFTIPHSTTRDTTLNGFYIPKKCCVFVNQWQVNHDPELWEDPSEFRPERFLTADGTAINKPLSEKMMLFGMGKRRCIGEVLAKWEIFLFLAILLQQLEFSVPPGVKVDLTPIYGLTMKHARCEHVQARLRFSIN
- PROCEDURE_DETAILS: Cytochrome P450 Family 1 Subfamily A Member 2 (CYP1A2) small molecule antagonists: luciferase reporter qHTS assay (AID 1671199); also: nearly all actives have a fitted effect of over 50% in size
- RUN_PARAMETERS: P450-Glo CYP1A2 enzyme, luciferin luminescence, 1 h; series mostly up to 115 µM
Records with an inconclusive call do not appear. Activity calls are given as the source filed them. Calls follow the shape of the dose curve; as a rule, active = well fitted inhibition curve with a large enough effect in the repeat runs; inconclusive = weak or mixed curves; inactive = no such curve, though single readings can be large or run the other way.
Labels: active, inactive

MOLECULE | QUALITATIVE_LABEL
CN(C)CCc1c[nH]c2ccc(C[C@H]3COC(=O)N3)cc12 | inactive
CCCC(=O)OC | inactive
CN(C)c1ccncc1 | inactive
Cc1nnc(C(=O)NC(C)(C)c2nc(C(=O)NCc3ccc(F)cc3)c(O)c(=O)n2C)o1 | inactive
CCCCCCCCOCCC#N | inactive
C[C@H]1COc2c(C3(N)CC3)c(F)cc3c(=O)c(C(=O)O)cn1c23 | inactive
O=C(O)CCCCCCCCCC(=O)O | inactive
COC(=O)C(c1ccccc1Cl)N1CCc2sccc2C1 (configuration not stated) | active
COc1cc2nc(N3CCN(C(=O)C4CCCO4)CC3)nc(N)c2cc1OC (configuration not stated) | inactive
CN1C(CCl)Nc2cc(Cl)c(S(N)(=O)=O)cc2S1(=O)=O (configuration not stated) | inactive
CCOC(=O)[C@H](CCc1ccccc1)N[C@H]1CS[C@H](c2cccs2)CN(CC(=O)O)C1=O | inactive
Cc1ccc(O)c(C(=O)c2ccccc2)c1 | active

----------
- PROCEDURE_DETAILS: qHTS assay to identify small molecule agonists of the hypoxia (HIF-1) signaling pathway - cell viability counter screen (AID 1224844); also: % is scaled to controls: 0 for no effect and ±100 for the full control effect; nearly all actives have a fitted effect of over 50% in size
- RUN_PARAMETERS: HRE-bla ME-180 viability, CellTiter-Glo luminescence, 17 h; series mostly up to 76.8 µM
Results filed as inconclusive are left out. Activity calls are given as the source filed them. Calls follow the shape of the full dose curve.

COMPOUND | activity change, negative = cytotoxicity
CCOC(=O)CC(C(C)=O)C(C)=O | inactive
O=C(O)CCCCCCCCCC(=O)O | inactive
CCOc1ccccc1OCCN[C@H](C)Cc1ccc(OC)c(S(N)(=O)=O)c1 | inactive
CCc1ccc(CC)cc1 | inactive
CC(=O)Oc1ccc(C(C)=O)cc1 | inactive
CC(C)(C)OC=O | inactive
Cc1ccc(Br)cc1 | inactive
CCCCCCCCCCCBr | inactive
C=CC(=O)CC | inactive
Clc1ccc2c(c1)Nc1ccccc1S2 | inactive
CCCCCCCCCCCCCCCC/C=C/C1CC(=O)OC1=O (stereo not given) | inactive
CCCCCCC(O)CO (stereo not given) | inactive
CCCC(=O)CC | inactive
Cc1cc(C)c(C)c(C)c1 | inactive
O=C(OOC(=O)c1ccccc1)c1ccccc1 | inactive
CCCCC(O)/C=C(C)/C=C/C=C/C(=O)N1CCCC1=O (stereo not given) | inactive
CCCCN=C(N)N=C(N)N | inactive
Nc1cc(S(=O)(=O)O)ccc1O | inactive
CN(C)c1cc(NC(=O)CNC(C)(C)C)c(O)c2c1C[C@H]1C[C@H]3[C@H](N(C)C)C(=O)C(C(N)=O)=C(O)[C@@]3(O)C(=O)C1=C2O | inactive
CCOC(=O)COc1ccc2c(C)c(CCN(CC)CC)c(=O)oc2c1Cl | inactive
CC(C)(C)c1ccc(C(=O)CCCCl)cc1 | inactive
CN(C)c1ccncc1 | inactive
CCCC(C)C(O)CC (stereo not given) | inactive
Nc1nc(Cl)cc(Cl)n1 | inactive
CC(=O)SCC(CC(=O)c1ccc(C)cc1)C(=O)O (stereo not given) | inactive
Cc1ccc2cccnc2c1 | inactive
CC(C)(O)CCCC1=CCC(C=O)CC1 (stereo not given) | inactive
CC(=O)c1c(C)cc(C(C)(C)C)cc1C | inactive
COC(C)(C)CC(C)=O | inactive
COCc1nnc(-c2ccc[n+]([O-])c2)n1-c1c(Cl)c(Cl)cc2[nH]c(=O)c(=O)[nH]c12 | inactive
